Reference source: the supplement of paper PMC10567573

Assignment: determine reported protein stability index for the given variants.
B1: CLCN6 (parent)
chain: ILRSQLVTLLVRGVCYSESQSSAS

- Variants of: B1
- test-protocol: protein stability index of a GFP-peptide fusion (GPS, HEK-293T) (PSI 1-6); higher = more stable;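 note: lentivirally expressed fusions sorted by FACS into six bins by GFP to DsRed ratio, PSI derived from sequencing read proportions per bin multiplied by bin number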
- condition-context: c terminus: a fixed tail appended

Dear colleague, please send me the reported protein stability index for ILRSQLVGLLVRGVCYSESQSSAS when you can.
2.01

Dear colleague, please send me the reported protein stability index for ILRSQLVNLLVRGVCYSESQSSAS when you can.
2.15

Dear colleague, please send me the reported protein stability index for ILRSQLVTLLVRGVCYRESQSSAS when you can.
2.36

Dear colleague, please send me the reported protein stability index for IHRSQLVTLLVRGVCYSESQSSAS when you can.
1.3

Dear colleague, please send me the reported protein stability index for ILRSQLVTLLVRGICYSESQSSAS when you can.
2.79

Dear colleague, please send me the reported protein stability index for ILRSQLVTLLVRGVCYSESQSSAN when you can.
2.4

Dear colleague, please send me the reported protein stability index for ILRSQLVTLLVRGVCYSASQSSAS when you can.
2.15

Dear colleague, please send me the reported protein stability index for ILRSQLVTLLVRGFCYSESQSSAS when you can.
2.46

Dear colleague, please send me the reported protein stability index for ILRSQLVTLLVRGVCYSESQPSAS when you can.
1.34

Dear colleague, please send me the reported protein stability index for ILRHQLVTLLVRGVCYSESQSSAS when you can.
3.41

Dear colleague, please send me the reported protein stability index for ILRSQLVTLIVRGVCYSESQSSAS when you can.
2.14

Dear colleague, please send me the reported protein stability index for ILRSQLVTLLNRGVCYSESQSSAS when you can.
3.1

Dear colleague, please send me the reported protein stability index for ILRSQLVTDLVRGVCYSESQSSAS when you can.
1.77

Dear colleague, please send me the reported protein stability index for ILRSQLVTLLVRGVHYSESQSSAS when you can.
1.73
